assay notes: Stability of ratio of the mixture of desloratadine polymorphic forms on storage (XRPD)
Type: physicochemical
run parameters: 40° C., 75% RH; 0 week
From the text: Copper radiation of 1.5418 Å was used. In all cases samples were packed in polyethylene and store above conditions.
Entries and their measured Form 2 (%) follow.
measured parameter: Form 2 (%)

| compound | result |
| --- | --- |
| Clc1ccc2c(c1)CCc1cccnc1C2=C1CCNCC1 [Example 3 of Stability Tests, desloratadine] | 26% |
| Clc1ccc2c(c1)CCc1cccnc1C2=C1CCNCC1 [Example 2 of Stability Tests, desloratadine] | 38% |
| Clc1ccc2c(c1)CCc1cccnc1C2=C1CCNCC1 [Example 1 of Stability Tests, desloratadine] | 43% |
| Clc1ccc2c(c1)CCc1cccnc1C2=C1CCNCC1 [Example 4 of Stability Tests, desloratadine] | 24% |

---

assay notes: Stability of ratio of the mixture of desloratadine polymorphic forms on storage (XRPD)
Assay type: physicochemical
run parameters: 25° C., 60% RH; 2 months (8 weeks)
The compounds listed here are annotated with their Form 1 (%).

| compound | Form 1 (%) |
| --- | --- |
| Clc1ccc2c(c1)CCc1cccnc1C2=C1CCNCC1 [Example 3 of Stability Tests, desloratadine] | 75 |
| Clc1ccc2c(c1)CCc1cccnc1C2=C1CCNCC1 [Example 2 of Stability Tests, desloratadine] | 67 |
| Clc1ccc2c(c1)CCc1cccnc1C2=C1CCNCC1 [Example 1 of Stability Tests, desloratadine] | 63 |
| Clc1ccc2c(c1)CCc1cccnc1C2=C1CCNCC1 [Example 4 of Stability Tests, desloratadine] | 86 |

---

Overview of reported Form 2 (%) across a group of compounds:
assay notes: Stability of ratio of the mixture of desloratadine polymorphic forms on storage (XRPD)
Assay type: physicochemical
run parameters: 25° C., 60% RH; 2 months (8 weeks)

| compound | Form 2 (%) |
| --- | --- |
| Clc1ccc2c(c1)CCc1cccnc1C2=C1CCNCC1 [Example 2 of Stability Tests, desloratadine] | 33% |
| Clc1ccc2c(c1)CCc1cccnc1C2=C1CCNCC1 [Example 1 of Stability Tests, desloratadine] | 37% |
| Clc1ccc2c(c1)CCc1cccnc1C2=C1CCNCC1 [Example 4 of Stability Tests, desloratadine] | 14% |
| Clc1ccc2c(c1)CCc1cccnc1C2=C1CCNCC1 [Example 3 of Stability Tests, desloratadine] | 25% |

---

# Lookup of reported Form 1 (%) keyed by entry
assay notes: Stability of ratio of the mixture of desloratadine polymorphic forms on storage (XRPD)
Type: physicochemical
run parameters: 40° C., 75% RH; 2 months (8 weeks)

| compound | Form 1 (%) |
| --- | --- |
| Clc1ccc2c(c1)CCc1cccnc1C2=C1CCNCC1 [Example 3 of Stability Tests, desloratadine] | 78% |
| Clc1ccc2c(c1)CCc1cccnc1C2=C1CCNCC1 [Example 2 of Stability Tests, desloratadine] | 65% |
| Clc1ccc2c(c1)CCc1cccnc1C2=C1CCNCC1 [Example 1 of Stability Tests, desloratadine] | 39% |
| Clc1ccc2c(c1)CCc1cccnc1C2=C1CCNCC1 [Example 4 of Stability Tests, desloratadine] | 85% |

---

assay notes: Stability of ratio of the mixture of desloratadine polymorphic forms on storage (XRPD)
Type: physicochemical
run parameters: 25° C., 60% RH; 1 week
Measured Form 2 (%) of individual entries

| compound | Form 2 (%) |
| --- | --- |
| Clc1ccc2c(c1)CCc1cccnc1C2=C1CCNCC1 [Example 4 of Stability Tests, desloratadine] | 13% |
| Clc1ccc2c(c1)CCc1cccnc1C2=C1CCNCC1 [Example 2 of Stability Tests, desloratadine] | 35% |
| Clc1ccc2c(c1)CCc1cccnc1C2=C1CCNCC1 [Example 1 of Stability Tests, desloratadine] | 41% |
| Clc1ccc2c(c1)CCc1cccnc1C2=C1CCNCC1 [Example 3 of Stability Tests, desloratadine] | 21% |

Just for reference, patent US20060223841A1 is where these values come from.
